// values below are reported growth
- System: UACC-62 melanoma
- TEST_SUMMARY: NCI-60 one-dose screen, 48 h (100 = growth as untreated, 0 = no growth, -100 = all killed)
- EXPERIMENTAL_SETUP: 10 µM
This is part of a sample that, as a whole, favours compounds with a hit. Of some 83,000 tested, about 20% had one in any assay.
EXPERIMENTAL_READOUT: growth (%)

CS(=O)(=O)Nc1ccc(Nc2c3ccccc3nc3cc(N)ccc23)cc1 | 40.2
COc1cc(/C=C\c2cc(OC)c(OC)c(OC)c2)cc(NS(=O)(=O)c2ccc(Cl)cc2)c1OC | 39.3
CN1c2ccccc2[C@]2(Cc3ccccc3)Cc3ccccc3N[C@H]12 | 87.5
Cc1cc(=O)[nH]c(N/N=C/c2ccccc2O)n1 | 92.3
CCOC(=O)C1CCc2c(ccc3ccccc23)N1CCC#N (configuration not stated) | 91
COc1ccc(-c2nc(-c3nc4cc(Cl)c(Cl)cc4[nH]3)c3ccccn23)cc1 | 88.9
CCN(CC)CCC(=O)Nc1cccc2c1C(=O)c1c(c(O)c3ccccc3c1O)C2=O | 79.6
O=C(Nc1nc2ccccc2s1)Nc1ccc([N+](=O)[O-])cc1Cl | 67.1
O=[N+]([O-])c1ccc(Oc2cc(Cl)c(Cl)cc2Cl)c(C(F)(F)F)c1 | 97
CCN(CC)CCNc1ccc(CO)c2oc3cc(Cl)ccc3c(=O)c12 | 73.1
COc1cc(Cl)cc(-c2nn(-c3cccc(NC(=O)Nc4cc(C(F)(F)F)cc(C(F)(F)F)c4)c3)cc2-c2ccncc2)c1 | -21.2
CCN1CCN(c2nc3ccccc3c3c(=O)c4ccccc4sc23)CC1 | 7.97
